TEST: Salt/co-crystal screening: 38 acids, eight solvent systems, solids analysed by XRPD
Format: physicochemical
REPORTED_CONDITIONS: Toluene; acid/freebase charge 1:1 unless label says 2:1; stirred at RT, else 5° C. slurry, anti-solvent addition or evaporation (footnote marks)
PROPERTY_MEASURED: Solid obtained in salt screening (XRPD), solvent E Toluene

Answered cases to consult:
| COMPOUND | VALUE_MEASURED |
| --- | --- |
| C[C@H](O)C(=O)O | gel* |
| CCCCCCCCCCCCCCCC(=O)O | gel* |
| CCC(=O)O | gel* |
| O=C(O)c1ccccc1 | gel* |
| Nc1ccc(C(=O)O)c(O)c1 | gel |
| O=C(O)CCC(=O)O | gel* |
| O=C1NS(=O)(=O)c2ccccc21 | gel |
| O=C(O)c1ccccc1O | gel* |

Solid obtained in salt screening (XRPD), solvent E Toluene for O=C(O)CNC(=O)c1ccccc1 ?
gel*

Can you share its Solid obtained in salt screening (XRPD), solvent E Toluene? I mean this compound: O=C(O)c1ccc2ccccc2c1O [1-hydroxy-2-naphthoic acid]
gel

Param item = COc1cc(C=O)ccc1O ; retrieve measured Solid obtained in salt screening (XRPD), solvent E Toluene.
gel

Tell me the measured Solid obtained in salt screening (XRPD), solvent E Toluene of CS(=O)(=O)O , please.
gel*

Could you share which Solid obtained in salt screening (XRPD), solvent E Toluene value was measured for O=C(O)[C@H](O)c1ccccc1 ?
gel

Which Solid obtained in salt screening (XRPD), solvent E Toluene reading was recorded for the compound O=C(O)CCCCC(=O)O ?
gel*

Recorded Solid obtained in salt screening (XRPD), solvent E Toluene of O=C(O)C[C@H](O)C(=O)O , please.
gel

* * *

TEST: Salt/co-crystal screening: 38 acids, eight solvent systems, solids analysed by XRPD
Assay type: physicochemical
REPORTED_CONDITIONS: THF; acid/freebase charge 1:1 unless label says 2:1; stirred at RT, else 5° C. slurry, anti-solvent addition or evaporation (footnote marks)
PROPERTY_MEASURED: Solid obtained in salt screening (XRPD), solvent C THF

Consider the reported Solid obtained in salt screening (XRPD), solvent C THF for these compounds:
| COMPOUND | VALUE_MEASURED |
| --- | --- |
| C[C@H](O)C(=O)O [L-lactic acid] | gel |
| O=C(O)c1ccccc1 [Benzoic acid] | gel* |
| O=C1NS(=O)(=O)c2ccccc21 [Saccharin] | gel |
| O=C(O)[C@H](O)c1ccccc1 [R-mandelic acid] | gel |
| O=C(O)c1ccc2ccccc2c1O [1-hydroxy-2-naphthoic acid] | gel |
| CS(=O)(=O)O [Methane sulfonic acid] | gel |
| CCCCCCCCCCCCCCCC(=O)O [Palmitic acid] | gel* |
| O=C(O)/C=C/c1ccccc1 [trans Cinnamic acid] | gel |

Form field: reported Solid obtained in salt screening (XRPD), solvent C THF of O=C(O)CNC(=O)c1ccccc1 [Hippuric acid]
gel*

Item under review: O=C(O)CCCC(=O)O [Glutaric acid] . Reported Solid obtained in salt screening (XRPD), solvent C THF?
gel*

Param item = CCC(=O)O [Propionic acid] ; retrieve measured Solid obtained in salt screening (XRPD), solvent C THF.
gel*

* * *

TEST: Differential scanning calorimetry (DSC) endotherms of crystalline hits
Type: physicochemical
REPORTED_CONDITIONS: onset temperature
Listing of entries alongside the reported DSC Endo. (onset, ° C.).
Kindly answer with a numeric value in °C, unit omitted.

| MOLECULE | VALUE_MEASURED |
| --- | --- |
| CCCCc1nc(-c2ccc(OCCCN(CC)CC)cc2)cn1-c1ccc(Oc2ccc(Cl)cc2)cc1.O=C(O)/C=C/C(=O)O [Fumarate Type A] | 115.0 |
| CCCCc1nc(-c2ccc(OCCCN(CC)CC)cc2)cn1-c1ccc(Oc2ccc(Cl)cc2)cc1.O=C(O)c1cc(O)ccc1O [Gentisate Type B] | 122.9 |

Let us move to another entry and its DSC Endo. (onset, ° C.).
Suppose we examine the molecule CCCCc1nc(-c2ccc(OCCCN(CC)CC)cc2)cn1-c1ccc(Oc2ccc(Cl)cc2)cc1.O=C(O)/C=C\C(=O)O [Maleate Type A] ; what DSC Endo. (onset, ° C.) value has been reported?
120.2

Entry source: patent US11883383B2
